test: Stability investigation of the lyophilisate (visual inspection, reverse HPLC); format: physicochemical; conditions: storage 2-8° C., T = 24 M
readout.kind: Purity of lyophilisate (stability study) (%)
Give a bare numeral; the unit % is implied.

1) C[C@@H]1NC(=O)CNC(=O)[C@H](CCC(=O)O)NC(=O)[C@@H]2CCCN2C(=O)[C@H]([C@@H](C)O)NC(=O)[C@H](CCC(=O)O)NC(=O)[C@H](CCCNC(=N)N)NC(=O)[C@H](CCC(N)=O)NC(=O)CNC(=O)CCCNC(=O)C[C@@H](C(=O)O)NC(=O)[C@H](Cc2ccc(O)cc2)NC(=O)[C@H](Cc2c[nH]c3ccccc23)NC(=O)[C@@H]2CCCN2C(=O)[C@H](CCCCN)NC(=O)[C@H](C)NC(=O)[C@H](CCC(=O)O)NC1=O [SEQ ID NO: 5]: 99

Shift focus to the following entry.
Problem: Which Purity of lyophilisate (stability study) value is on record for C[C@@H]1NC(=O)CNC(=O)[C@H](CCC(=O)O)NC(=O)[C@@H]2CCCN2C(=O)[C@H]([C@@H](C)O)NC(=O)[C@H](CCC(=O)O)NC(=O)[C@H](CCCNC(=N)N)NC(=O)[C@H](CCC(N)=O)NC(=O)CNC(=O)[C@@H](N)CCCCNC(=O)CNC(=O)[C@H](Cc2ccc(O)cc2)NC(=O)[C@H](Cc2c[nH]c3ccccc23)NC(=O)[C@@H]2CCCN2C(=O)[C@H](CCCCN)NC(=O)[C@H](C)NC(=O)[C@H](CCC(=O)O)NC1=O [SEQ ID NO: 3] ?
Result: 98

---

Overview of recorded Purity of lyophilisate (stability study) for various compounds
assay: Stability investigation of the lyophilisate (visual inspection, reverse HPLC); type: physicochemical; settings: storage 2-8° C., T = 0
Give a bare numeral; the unit % is implied.

1) C[C@@H]1NC(=O)CNC(=O)[C@H](CCC(=O)O)NC(=O)[C@@H]2CCCN2C(=O)[C@H]([C@@H](C)O)NC(=O)[C@H](CCC(=O)O)NC(=O)[C@H](CCCNC(=N)N)NC(=O)[C@H](CCC(N)=O)NC(=O)CNC(=O)[C@@H](N)CSSC[C@@H](C(=O)O)NC(=O)[C@H](Cc2ccc(O)cc2)NC(=O)[C@H](Cc2c[nH]c3ccccc23)NC(=O)[C@@H]2CCCN2C(=O)[C@H](CCCCN)NC(=O)[C@H](C)NC(=O)[C@H](CCC(=O)O)NC1=O: 96
2) C[C@@H]1NC(=O)CNC(=O)[C@H](CCC(=O)O)NC(=O)[C@@H]2CCCN2C(=O)[C@H]([C@@H](C)O)NC(=O)[C@H](CCC(=O)O)NC(=O)[C@H](CCCNC(=N)N)NC(=O)[C@H](CCC(N)=O)NC(=O)CNC(=O)[C@@H]2CCCN2C(=O)[C@H](CO)NC(=O)[C@@H](N)CCCCNC(=O)CC[C@@H](C(=O)O)NC(=O)[C@H](Cc2ccc(O)cc2)NC(=O)[C@H](Cc2c[nH]c3ccccc23)NC(=O)[C@@H]2CCCN2C(=O)[C@H](CCCCN)NC(=O)[C@H](C)NC(=O)[C@H](CCC(=O)O)NC1=O: 96

Shift focus to the following entry.
Problem: Which Purity of lyophilisate (stability study) value is on record for C[C@@H]1NC(=O)CNC(=O)[C@H](CCC(=O)O)NC(=O)[C@@H]2CCCN2C(=O)[C@H]([C@@H](C)O)NC(=O)[C@H](CCC(=O)O)NC(=O)[C@H](CCCNC(=N)N)NC(=O)[C@H](CCC(N)=O)NC(=O)CNC(=O)CCNC(=O)CC[C@@H](C(=O)O)NC(=O)[C@H](Cc2ccc(O)cc2)NC(=O)[C@H](Cc2c[nH]c3ccccc23)NC(=O)[C@@H]2CCCN2C(=O)[C@H](CCCCN)NC(=O)[C@H](C)NC(=O)[C@H](CCC(=O)O)NC1=O ?
Result: 99

Values compiled from patent US10711041B2.
